Source listed as PubChem BioAssay AID524.

biological target: cAMP-dependent protein kinase catalytic subunit alpha (Homo sapiens) (UniProt P17612); assay: PKA catalytic subunit kinase inhibition – biochemical, ATP-depletion luminescence, Kemptide substrate, primary screen (AID 524); details: PKA Kemptide phosphorylation, Kinase-Glo ATP luminescence; at 6 µM; stronger effect = higher value
Out of some 65,000 compounds screened, about 95 (0.1%) were called active. The sample as a whole holds a higher share of actives than the screen did.
measurement.type: inhibition (%)

1. Cc1nc(NC(=O)C23CCC(C)(C(=O)O2)C3(C)C)sc1C (centres undefined)	1.8
2. COc1ccc(C(c2nnnn2Cc2cccs2)N2CCN(c3ccccc3)CC2)cc1OC (centres undefined)	7.6
3. CCCOc1ccc(-c2nc(N)n[nH]2)cc1	-2.2
4. CN1C(=O)CC(N2CCN(c3ccccn3)CC2)C1=O (centres undefined)	0.2
5. Brc1cccc(-c2nnc3n2CCC3)c1	0.9
6. O=c1c2ccccc2nnn1CSc1nc2sc3c(c2c(=O)n1CC1CCCO1)CCC3 (centres undefined)	6.1
7. CN(C(=O)c1ccno1)c1nnc(-c2cccnc2)s1	2.6
8. COc1ccc2c(c1)OC(O)(C(F)(F)C(F)F)CC2=O (centres undefined)	4.1
9. CCCCCCn1c(SCC(=O)c2ccccc2)nc2c1c(=O)[nH]c(=O)n2C	7.8
10. Cc1cc(C(=O)OCC(=O)NCc2ccco2)c(C)n1-c1ccccc1	0.4
11. CN(C(=O)c1ccccn1)c1nnc(-c2ccccn2)s1	-0.9
12. CCN1CCN(c2ncnc3c2oc2nc(C)c4c(c23)CC(C)(C)OC4)CC1	0.2
13. CC1CCCCC1NC(=O)CSc1nnc(N)s1 (centres undefined)	5.7
14. CN(C(=O)COc1ccccc1)c1nnc(-c2ccncc2)s1	29.1
15. CCCc1nc2ccccc2c(=O)n1NC(=O)c1c(O)c2ccccc2[nH]c1=O	7.9
16. CCOC(=O)c1ccc(N2C(=O)CC(Sc3nc(O)c(CC)c(=O)[nH]3)C2=O)cc1 (centres undefined)	7.3
17. Cc1cc(C(=O)CC#N)c(C)n1CC(F)(F)F	6
18. CCC(C)n1[nH]c(=O)cc1N (centres undefined)	-5.4
19. Cc1ccc2c(c1)C(O)(CC(=O)c1cccnc1)C(=O)N2 (centres undefined)	6
20. CCCCNc1nc2c(c(=O)[nH]c(=O)n2C)n1CCOc1ccccc1	-1.2
21. O=C(O)Cc1ccc(NC(=O)C2CCCCC2C(=O)O)cc1 (centres undefined)	9.2
22. CCN(CC)CCN1C(=O)C(=O)/C(=C(/O)c2ccccc2)C1c1ccccc1F (centres undefined)	-5.4
23. CCN(c1ccccc1)S(=O)(=O)c1ccc(N)cc1	9
24. O=C(NCc1ccc(Cl)cc1)c1cc2c(nc3sccn32)s1	2.8
